Just for reference, PubChem BioAssay (EPA / NIEHS) is where these values come from.

# Read-out: matrix metalloproteinase-10 (MMP10), MMP10 (gene 4319)
# test: LTEA_HepaRG_MMP10: Life Technologies and Expression Analysis (LTEA) Assay for matrix metalloproteinase-10 (MMP10) using HepaRG (AID 2283517)
# measurementParameters: mRNA level, 48 h; actives raise or lower the signal
Calls of active or inactive are those of the source. The calls were made as follows: active = hit-call score of the fitted dose curve at least 0.9, where 1 is the maximum; inactive = score below 0.9.
Allowed answers: active, inactive

Consider the worked cases shown below.
>>> df
                                   compound  classification
0   CNCc1ccc(NC(=O)c2c[nH]c3c2C(=O)CCC3)cc1        inactive
1                 CC1(C)C(=O)N(Br)C(=O)N1Br        inactive
2  CCc1cc(SCc2sc(-c3ccc(C(F)(F)F)cc3)nc2CN2CCN(c3ccc(OC)cc3)CC2)ccc1OCC(=O)O          active
3                              COCCOCCOCCOC        inactive

Query: Which outcome was entered for the compound CNS(=O)(=O)c1cc(C(=O)N2CCC(CCN3C4CCC3CC(n3c(C)nc5ccccc53)C4)(c3cccc(F)c3)CC2)c(Cl)cc1F (stereo not given) in this test?
Response: inactive

====

# Read-out: Low-density lipoprotein receptor (LDLR), LDLR (gene 3949)
# test: BSK_CASM3C_LDLR: BioMAP Diversity Plus: CASM3C Assay for Low-density lipoprotein receptor (LDLR) Biomarker Activity (AID 2283045);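 also: LDLR protein level on the cell surface quantified by ELISA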
# measurementParameters: primary human coronary artery smooth muscle cells; actives raise or lower the signal
Calls of active or inactive are those of the source. How the source made its calls: active means hit-call score of the fitted dose curve at least 0.9, where 1 is the maximum; inactive means score below 0.9.
Allowed answers: Y for active, N for inactive

Consider the worked cases shown below.
>>> print(df.to_string())
                                   compound  classification
0  CCn1nc(Cc2ccccc2)cc1C1CCN(C[C@H]2C[C@H](N(C)[C@@H](C(=O)O)C(C)C)C[C@@H]2c2cccc(F)c2)CC1               N
1     O=P(OC(CCl)CCl)(OC(CCl)CCl)OC(CCl)CCl               N
2  CCOC(=O)c1ccc(C2CCC(NC[C@H](O)COc3ccc(O)c(NS(C)(=O)=O)c3)CC2)cc1 (stereo partly specified)               Y
3  O=c1n(CC2CO2)c(=O)n(CC2CO2)c(=O)n1CC1CO1 (stereo unspecified)               N
4                       CC(C)=CCC/C(C)=C\CO               N

Query: Which outcome was entered for the compound `COC(=O)c1c(Cl)c(Cl)c(C(=O)OC)c(Cl)c1Cl` in this test?
Response: N

Query: Which outcome was entered for the compound `Cn1c(=O)c2c(ncn2C)n(C)c1=O` in this test?
Response: N

Query: Which outcome was entered for the compound `COc1cccc(-c2ccc(/C=C\CN3CCCCCC3)cc2Cl)c1` in this test?
Response: Y

Query: Which outcome was entered for the compound `CCCCCCc1ccc(O)cc1O` in this test?
Response: Y

Query: Which outcome was entered for the compound `Cn1cnc([N+](=O)[O-])c1Sc1ncnc2nc[nH]c12` in this test?
Response: N

Query: Which outcome was entered for the compound `O=C(O)c1cccc(Oc2ccccc2)c1` in this test?
Response: N
